# assayed.target: Mth α-subunit (NrdE) of Class Ib ribonucleotide reductase (Mycolicibacterium thermoresistibile)
# Sequence (G7CEK2 1-693): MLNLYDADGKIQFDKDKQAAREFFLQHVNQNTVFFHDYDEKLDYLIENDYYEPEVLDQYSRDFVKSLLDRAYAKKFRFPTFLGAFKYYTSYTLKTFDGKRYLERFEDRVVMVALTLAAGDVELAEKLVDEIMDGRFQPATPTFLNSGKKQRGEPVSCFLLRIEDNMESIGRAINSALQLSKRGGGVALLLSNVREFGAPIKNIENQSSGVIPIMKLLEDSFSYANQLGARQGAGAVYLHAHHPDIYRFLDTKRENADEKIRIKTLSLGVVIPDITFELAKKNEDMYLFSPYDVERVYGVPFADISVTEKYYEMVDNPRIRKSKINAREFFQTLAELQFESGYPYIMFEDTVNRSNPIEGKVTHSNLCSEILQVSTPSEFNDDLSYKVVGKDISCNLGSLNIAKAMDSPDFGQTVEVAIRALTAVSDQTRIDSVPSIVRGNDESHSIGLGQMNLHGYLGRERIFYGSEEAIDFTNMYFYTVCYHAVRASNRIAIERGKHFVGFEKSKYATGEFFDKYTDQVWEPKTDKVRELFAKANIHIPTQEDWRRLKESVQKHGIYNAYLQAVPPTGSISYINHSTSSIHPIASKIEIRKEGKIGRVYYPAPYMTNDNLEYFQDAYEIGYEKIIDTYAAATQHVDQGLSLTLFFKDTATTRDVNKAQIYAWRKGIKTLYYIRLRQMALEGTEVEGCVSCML
# protocol: isothermal titration calorimetry
# Format: binding
endpoint.name: pKd
// field semantics: pKd = negative decimal log of concentration (mol/L)

Worked cases, answers included:
Please give measured pKd of the following entry: Nc1ccn([C@H]2C[C@H](O)[C@@H](COP(=O)(O)OP(=O)(O)OP(=O)(O)O)O2)c(=O)n1
5.18

# return recorded pKd for entry Nc1nc2c(ncn2[C@H]2C[C@H](O)[C@@H](COP(=O)(O)OP(=O)(O)OP(=O)(O)O)O2)c(=O)[nH]1
5.34

***
State its pKd for this molecule: Nc1ncnc2c1ncn2[C@H]1C[C@H](O)[C@@H](COP(=O)(O)OP(=O)(O)OP(=O)(O)O)O1
5.96

Please report the measured pKd for Cc1cn([C@@H]2O[C@H](COP(=O)(O)OP(=O)(O)OP(=O)(O)O)[C@@H](O)[C@H]2O)c(=O)[nH]c1=O
6.19

Name the recorded pKd of the item Cc1cn([C@H]2C[C@H](O)[C@@H](COP(=O)(O)OP(=O)(O)OP(=O)(O)O)O2)c(=O)[nH]c1=O in your answer.
5.48
